# assay-context: 323.15 K; 100 kPa; Liquid; Vibrating tube method
assay-endpoint: mass density (kg/m3)

1. C=CCn1cc[n+](C)c1.O=S(=O)([N-]S(=O)(=O)C(F)(F)F)C(F)(F)F; 1474.45
2. CCCO [propan-1-ol]; 779.05
3. CC[S+](CC)CC.O=S(=O)([N-]S(=O)(=O)C(F)(F)F)C(F)(F)F [triethylsulfonium bis((trifluoromethyl)sulfonyl)imide]; 1435.99
4. O=S(=O)([N-]S(=O)(=O)C(F)(F)F)C(F)(F)F.On1cc[n+](O)c1 [1,3-dihydroxyimidazolium bis(trifluoromethylsulfonyl)imide]; 1711.19
5. CCCC[N+]1(C)CCCC1.O=S(=O)([N-]S(=O)(=O)C(F)(F)F)C(F)(F)F; 1372.3
